Target: T1, EsCas13d, nuclease-dead (Eubacterium siraeum, UniProt B0MS50, R295A;H300A;R849A;H854A)
T1 sequence: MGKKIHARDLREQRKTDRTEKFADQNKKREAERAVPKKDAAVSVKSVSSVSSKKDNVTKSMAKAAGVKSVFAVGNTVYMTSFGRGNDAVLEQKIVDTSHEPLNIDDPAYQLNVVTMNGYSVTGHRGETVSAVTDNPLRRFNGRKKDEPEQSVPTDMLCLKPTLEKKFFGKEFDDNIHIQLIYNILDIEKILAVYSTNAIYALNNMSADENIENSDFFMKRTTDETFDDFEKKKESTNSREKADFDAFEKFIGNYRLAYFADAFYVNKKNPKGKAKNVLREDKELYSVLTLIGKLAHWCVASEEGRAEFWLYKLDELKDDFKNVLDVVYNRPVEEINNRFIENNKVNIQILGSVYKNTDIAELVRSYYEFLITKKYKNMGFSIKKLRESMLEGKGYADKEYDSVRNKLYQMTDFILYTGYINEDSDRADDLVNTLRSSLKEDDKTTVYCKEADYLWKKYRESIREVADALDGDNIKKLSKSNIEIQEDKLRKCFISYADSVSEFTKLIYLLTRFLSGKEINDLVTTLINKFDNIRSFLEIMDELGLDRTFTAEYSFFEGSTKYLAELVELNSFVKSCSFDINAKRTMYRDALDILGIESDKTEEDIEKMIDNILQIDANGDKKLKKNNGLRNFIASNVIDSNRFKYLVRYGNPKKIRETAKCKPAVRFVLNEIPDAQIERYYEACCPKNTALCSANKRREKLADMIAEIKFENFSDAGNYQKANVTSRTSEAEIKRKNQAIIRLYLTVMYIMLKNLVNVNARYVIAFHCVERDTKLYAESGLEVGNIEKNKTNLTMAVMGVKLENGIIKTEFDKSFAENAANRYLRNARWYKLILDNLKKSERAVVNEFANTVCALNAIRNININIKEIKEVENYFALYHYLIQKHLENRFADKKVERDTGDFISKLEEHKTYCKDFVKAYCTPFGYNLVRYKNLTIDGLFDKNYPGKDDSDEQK
Assay: crRNA (strand 1, pre-loaded); Mg2+; 40 mM Tris-HCl pH 7.5, 150 mM NaCl, 6 mM MgCl2, 1 mM DTT, 0.1% Tween-20, 0.2 mg/ml BSA; 25 C; 10 min per concentration, then washed
Conditions: tags: His6-TwinStrep-SUMO cleaved; N-terminal SNAP kept (SNAP-Surface 488); label: 3' end held by stalled T7 RNA polymerase
pKd: −log10 of the molar value.

binder | pKd
target 2 MT 5'PFS CCG 3'PFS CCC (mixed) RNA 1: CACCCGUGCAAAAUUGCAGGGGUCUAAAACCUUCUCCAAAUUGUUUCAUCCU RNA 2: GGGAAUGGAUCCACAUCUACGAAUUCCCGAGGAUGAAACAAUUUGGAGAAGCCCAGAUCGGAAGAGCACACGU | 8.51
target 2 MT 5'PFS CCG 3'PFS CCU (mixed) RNA 1: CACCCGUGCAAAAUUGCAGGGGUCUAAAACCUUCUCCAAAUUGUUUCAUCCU RNA 2: GGGAAUGGAUCCACAUCUACGAAUUCCCGAGGAUGAAACAAUUUGGAGAAGCCUAGAUCGGAAGAGCACACGU | 8.08
target 1 insA 3' of 11,insG 3' of 9 (mixed) RNA 1: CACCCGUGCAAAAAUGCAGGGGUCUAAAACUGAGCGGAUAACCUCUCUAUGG RNA 2: GGGAAUGGAUCCACAUCUACGAAUUCGUACCAUAGAGAGGUAUAGUCCGCUCACCGAGAUCGGAAGAGCACACGU | 7.63
target 1 C2G,U19G (mixed) RNA 1: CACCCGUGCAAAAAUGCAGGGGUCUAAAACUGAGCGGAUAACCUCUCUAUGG RNA 2: GGGAAUGGAUCCACAUCUACGAAUUCGUACCAGAGAGAGGUUAUCCGCUGACCGAGAUCGGAAGAGCACACGU | 7.42
